Test: Micro-PET scan of brain uptake of ^11C-labelled compound in SAMP8 model mice and control mice
Format: in vivo
Settings: mouse, hippocampus, other: injection (kind of injection not stated), 31 μCi; normal control mice, 15 min after injection; read-out: hippocampus uptake of radiopharmaceuticals, Control mice
Source text: SAMP8 (senescence accelerated mouse prone 8) mice are the most common animal model of AD (Alzheimer's disease), in its brain there are a large number of amyloid deposition plaque. In this example, SAMP8 mice were used as model mice, and the normal mice were used as the control mice. Both the model mice and the control mice were 10 months old. […]
QUANTITY: tissue uptake at 15 min (%ID/g)
API: value field is a number in %ID/g; no unit string.

Enquiry: Need tissue uptake at 15 min, item CNc1ccc(-c2nc3ccc(B(O)O)cc3s2)cc1
Return: 1.49

====

Experiment: Micro-PET scan of brain uptake of ^11C-labelled compound in SAMP8 model mice and control mice
Format: in vivo
Conditions: mouse, hippocampus, other: injection (kind of injection not stated), 31 μCi; normal control mice, 25 min after injection; read-out: hippocampus uptake of radiopharmaceuticals, Control mice
QUANTITY: tissue uptake at 25 min (%ID/g)
API: value field is a number in %ID/g; no unit string.

Enquiry: Need tissue uptake at 25 min, item CNc1ccc(-c2nc3ccc(B(O)O)cc3s2)cc1
Return: 1.09

====

Assay: Micro-PET scan of brain uptake of ^11C-labelled compound in SAMP8 model mice and control mice
Assay type: in vivo
Details: mouse, cerebral cortex, other: injected (kind of injection not stated), 31 μCi; SAMP8 model mice, 5 min after injection; read-out: Cerebral cortex uptake of radiopharmaceuticals, Model mice
QUANTITY: tissue uptake at 5 min (%ID/g)
API: value field is a number in %ID/g; no unit string.

Enquiry: Need tissue uptake at 5 min, item CNc1ccc(-c2nc3ccc(B(O)O)cc3s2)cc1
Return: 3.03

====

Assay: Micro-PET scan of brain uptake of ^11C-labelled compound in SAMP8 model mice and control mice
Assay type: in vivo
Conditions: mouse, hippocampus, other: injection (kind of injection not stated), 31 μCi; normal control mice, 35 min after injection; read-out: hippocampus uptake of radiopharmaceuticals, Control mice
QUANTITY: tissue uptake at 35 min (%ID/g)
API: value field is a number in %ID/g; no unit string.

Enquiry: Need tissue uptake at 35 min, item CNc1ccc(-c2nc3ccc(B(O)O)cc3s2)cc1
Return: 1.01

====

Assay: Micro-PET scan of brain uptake of ^11C-labelled compound in SAMP8 model mice and control mice
Assay type: in vivo
Conditions: mouse, cerebral cortex, other: injected (kind of injection not stated), 31 μCi; normal control mice, 15 min after injection; read-out: Cerebral cortex uptake of radiopharmaceuticals, Control mice
QUANTITY: tissue uptake at 15 min (%ID/g)
API: value field is a number in %ID/g; no unit string.

Enquiry: Need tissue uptake at 15 min, item CNc1ccc(-c2nc3ccc(B(O)O)cc3s2)cc1
Return: 1.48

====

Experiment: Micro-PET scan of brain uptake of ^11C-labelled compound in SAMP8 model mice and control mice
Type: in vivo
Conditions: mouse, cerebral cortex, other: injected (kind of injection not stated), 31 μCi; normal control mice, 35 min after injection; read-out: Cerebral cortex uptake of radiopharmaceuticals, Control mice
QUANTITY: tissue uptake at 35 min (%ID/g)
API: value field is a number in %ID/g; no unit string.

Enquiry: Need tissue uptake at 35 min, item CNc1ccc(-c2nc3ccc(B(O)O)cc3s2)cc1
Return: 0.99
